Reference for the values: patent US20230271964A1

Below is a list of entries, each paired with its recorded A2A pKi value.
STUDY SYSTEM: human adenosine A2A receptor (Homo sapiens (Human))
TEST: Adenosine receptor inhibition binding assay, [3H]ZM241385, HEK293 A2A receptor membranes
STUDY CONDITIONS: 1 nM [3H]ZM241385, HEK293-hA2A membranes, 25° C., 1 h; Ki from IC50 by Cheng-Prusoff
A bare number is all that is needed in reply.

Reference set (2 entries):
Nc1nc(-c2ccccc2)c(-c2cc(CO)nc(C(F)(F)F)c2)c2nn(C[C@H]3CCCO3)c(=O)n12 [Example 2-38] : 8.9
Cc1cc(-c2c(-c3ccccc3)nc(N)n3c(=O)n(CC4CCCN4C)nc23)cc(C)n1 (stereo not drawn) [Example 2-6] : 9.1

Here is another molecule to look at.
What value of measured A2A pKi is listed for Cc1cc(-c2c(-c3ccccc3)nc(N)n3c(=O)n(Cc4ccon4)nc23)cc(C)n1 [Example 1-13] ?
8.9

----------
STUDY SYSTEM: human adenosine A1 receptor (Homo sapiens (Human))
Sequence (P30542 whole entry): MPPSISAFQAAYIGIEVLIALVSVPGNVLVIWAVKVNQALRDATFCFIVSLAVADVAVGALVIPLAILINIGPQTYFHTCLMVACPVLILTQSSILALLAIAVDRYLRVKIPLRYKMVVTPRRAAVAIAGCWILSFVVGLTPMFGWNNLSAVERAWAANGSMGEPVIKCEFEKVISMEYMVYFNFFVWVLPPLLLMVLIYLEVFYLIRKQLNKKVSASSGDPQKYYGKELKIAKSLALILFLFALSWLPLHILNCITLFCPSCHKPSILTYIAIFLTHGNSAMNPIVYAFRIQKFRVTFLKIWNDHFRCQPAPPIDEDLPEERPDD
TEST: Adenosine receptor inhibition binding assay, [3H]DPCPX, A1 receptor membranes
STUDY CONDITIONS: 1 nM [3H]DPCPX, 25° C., 1 h; Ki from IC50 by Cheng-Prusoff
Let's look at some compounds and their measured A1 pKi.

In the examples that follow, each entry is paired with its recorded A1 pKi.
Cc1cc(-c2c(-c3ccccc3)nc(N)n3c(=O)n(C4CCN(C(=O)OC(C)(C)C)C4)nc23)cc(C)n1 (stereo not shown) [Example 2-1] : 6.8
COc1cc(-c2c(-c3ccc(F)cc3)nc(N)n3c(=O)n(C[C@H]4CCCO4)nc23)cc(CO)n1 [Example 2-37] : 5.5
Cc1cc(-c2c(-c3ccccc3)nc(N)n3c(=O)n(Cc4cncn4C)nc23)cc(C)n1 [Example 1-18] : 6.9

Consider the record given below.
Recorded A1 pKi of Cc1cc(-c2c(-c3ccccc3)nc(N)n3c(=O)n(Cc4ccn(C)n4)nc23)cc(C)n1 [Example 1-16] , please.
7.2

----------
A2A pKi by entry:
STUDY SYSTEM: human adenosine A2A receptor (Homo sapiens (Human))
TEST: Adenosine receptor inhibition binding assay, [3H]ZM241385, HEK293 A2A receptor membranes
STUDY CONDITIONS: 1 nM [3H]ZM241385, HEK293-hA2A membranes, 25° C., 1 h; Ki from IC50 by Cheng-Prusoff
The answer should be written as a number, with no unit following it.

Reference set (3 entries):
Cc1cc(-c2c(-c3ccccc3)nc(N)n3c(=O)n(Cc4nccn4C)nc23)cc(CO)n1 [Example 1-41] : 9.1
Cc1cc(-c2c(-c3ccc(F)cc3)nc(N)n3c(=O)n(Cc4nc(C)oc4C)nc23)cc(C)n1 [Example 1-32] : 9.5
COc1cc(-c2c(-c3ccccc3)nc(N)n3c(=O)n(Cc4ncoc4C)nc23)cc(CO)n1 [Example 1-60] : 9.9

Now for a further compound.
Tell me reported A2A pKi for Cc1cc(-c2c(-c3ccccc3)nc(N)n3c(=O)n(Cc4ncoc4C)nc23)cc(C)n1 [Example 1-22] , tested with human adenosine A2A receptor (Homo sapiens (Human)).
10.1

----------
A2A pKi: recorded values
STUDY SYSTEM: human adenosine A2A receptor (Homo sapiens (Human))
TEST: Adenosine receptor inhibition binding assay, [3H]ZM241385, HEK293 A2A receptor membranes
STUDY CONDITIONS: 1 nM [3H]ZM241385, HEK293-hA2A membranes, 25° C., 1 h; Ki from IC50 by Cheng-Prusoff
Answer with a number only.

Cc1cc(-c2c(-c3ccccc3)nc(N)n3c(=O)n(C4CCNC4)nc23)cc(C)n1 (stereo not drawn) : 7.4

GET /values?readout=A2A pKi&system=human adenosine A2A receptor (Homo sapiens (Human))&item= Cc1cc(-c2c(-c3ccccc3)nc(N)n3c(=O)n(CCN4CCCC4c4cccs4)nc23)cc(C)n1 (stereo not drawn)
8.9

----------
STUDY SYSTEM: human adenosine A2A receptor (Homo sapiens (Human))
TEST: Adenosine receptor inhibition binding assay, [3H]ZM241385, HEK293 A2A receptor membranes
STUDY CONDITIONS: 1 nM [3H]ZM241385, HEK293-hA2A membranes, 25° C., 1 h; Ki from IC50 by Cheng-Prusoff
Procedure: Inhibition binding assays were performed using 0.2 µg of membranes prepared from HEK293 cells infected with BacMam human adenosine A2A receptor or 1.4 µg of membranes prepared from HEK293 cells infected with BacMam human adenosine A1 receptor. […] Bound radioactivity was determined by liquid scintillation counting and inhibition curves were analysed using a four-parameter logistic equation. […]
TEST READOUT: A2A pKi
A bare number is all that is needed in reply.

Cc1cc(-c2c(-c3ccc(F)cc3)nc(N)n3c(=O)n(Cc4nc(C)oc4C)nc23)cc(CO)n1 : 9.2
Cc1cc(-c2c(-c3ccccc3)nc(N)n3c(=O)n(Cc4cocn4)nc23)cc(C)n1 : 9.2
Cc1cc(-c2c(-c3ccccc3)nc(N)n3c(=O)n(Cc4cc(C)on4)nc23)cc(CO)n1 : 9.1
Cc1ocnc1Cn1nc2c(-c3cc(C)[n+]([O-])c(C)c3)c(-c3ccc(F)cc3)nc(N)n2c1=O : 8.8
Cc1cc(-c2c(-c3ccccc3)nc(N)n3c(=O)n(Cc4nn[nH]n4)nc23)cc(C)n1 : 6.4
Cc1cc(-c2c(-c3ccccc3)nc(N)n3c(=O)n(C[C@H]4C[C@@H](F)CN4)nc23)cc(C)n1 : 8.0
Cc1cc(-c2c(-c3ccccc3)nc(N)n3c(=O)n(Cc4nccn4C)nc23)cc(C)[n+]1[O-] : 8.0
Cc1cc(-c2c(-c3ccccc3)nc(N)n3c(=O)n(Cc4coc(C)n4)nc23)cc(C)n1 : 8.9

Param item = COc1cc(-c2c(-c3ccc(F)cc3)nc(N)n3c(=O)n(Cc4ncoc4C)nc23)cc(CO)n1 ; retrieve measured A2A pKi.
9.6

// query A2A pKi value for entry Cc1cc(-c2c(-c3ccccc3)nc(N)n3c(=O)n(Cc4nonc4C)nc23)cc(C)n1
9.6

Look up A2A pKi: CCn1nccc1CCn1nc2c(-c3cc(C)nc(C)c3)c(-c3ccccc3)nc(N)n2c1=O
8.0

Requested field: A2A pKi. Item: Cc1cc(-c2c(-c3ccccc3)nc(N)n3c(=O)n(C[C@@H]4C[C@H](O)CN4C)nc23)cc(C)n1
8.8

Request the reported A2A pKi associated with Cc1cc(-c2c(-c3ccccc3)nc(N)n3c(=O)n(CCc4nnn(C)n4)nc23)cc(C)n1
7.2

Given the compound Cc1cc(-c2c(-c3ccccc3)nc(N)n3c(=O)n(C[C@@H]4CCCO4)nc23)cc(CO)n1 , what is its reported A2A pKi?
9.1

Endpoint output: A2A pKi of Cc1cc(-c2c(-c3ccccc3)nc(N)n3c(=O)n(Cc4nnco4)nc23)cc(C)n1 . Value?
8.1

Please give the measured A2A pKi for this compound: Cc1cc(-c2c(-c3ccccc3)nc(N)n3c(=O)n(CC4CCCN4Cc4ccccc4CN)nc23)cc(C)n1 (stereo not drawn)
8.4

So what's the measured A2A pKi for this one? COc1cc(-c2c(-c3ccccc3)nc(N)n3c(=O)n(C[C@H]4CCCO4)nc23)cc(CO)n1
9.2

A2A pKi lookup needed for COCCN1CCC[C@@H]1Cn1nc2c(-c3cc(C)nc(C)c3)c(-c3ccccc3)nc(N)n2c1=O , thanks.
8.2

----------
STUDY SYSTEM: human adenosine A2A receptor (Homo sapiens (Human), UniProt P29274)
Sequence (P29274 whole entry): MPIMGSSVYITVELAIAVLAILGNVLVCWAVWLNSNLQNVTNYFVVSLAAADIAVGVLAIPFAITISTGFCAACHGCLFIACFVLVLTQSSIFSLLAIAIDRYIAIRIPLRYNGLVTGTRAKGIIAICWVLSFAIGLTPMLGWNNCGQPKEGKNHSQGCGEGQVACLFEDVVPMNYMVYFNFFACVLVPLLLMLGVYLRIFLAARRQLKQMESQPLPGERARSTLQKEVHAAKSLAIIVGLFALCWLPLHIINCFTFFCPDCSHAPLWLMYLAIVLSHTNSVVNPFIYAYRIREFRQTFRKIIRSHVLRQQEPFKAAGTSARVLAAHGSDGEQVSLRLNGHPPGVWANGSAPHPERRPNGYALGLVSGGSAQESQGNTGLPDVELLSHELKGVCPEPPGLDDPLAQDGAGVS
TEST: Adenosine receptor inhibition binding assay, [3H]ZM241385, HEK293 A2A receptor membranes
STUDY CONDITIONS: 1 nM [3H]ZM241385, HEK293-hA2A membranes, 25° C., 1 h; Ki from IC50 by Cheng-Prusoff
TEST READOUT: A2A pKi
Write the number on its own, no unit after it.

Observe how each entry below is paired with its result.
Cc1ocnc1Cn1nc2c(-c3cc(C)[n+]([O-])c(C)c3)c(-c3ccccc3)nc(N)n2c1=O : 9.2
Cc1nc(Cn2nc3c(-c4cc(C)[n+]([O-])c(C)c4)c(-c4ccc(F)cc4)nc(N)n3c2=O)c(C)o1 : 8.4
Cc1cc(-c2c(-c3ccc(F)cc3)nc(N)n3c(=O)n(Cc4ccn(C)n4)nc23)cc(CO)n1 : 8.6

API: the following record is the query input.
Please give the measured A2A pKi for this molecule: Cc1cc(-c2c(-c3ccccc3)nc(N)n3c(=O)n(CCn4cccn4)nc23)cc(C)n1
7.5

----------
STUDY SYSTEM: human adenosine A2A receptor (Homo sapiens (Human), UniProt P29274)
TEST: Adenosine receptor inhibition binding assay, [3H]ZM241385, HEK293 A2A receptor membranes
STUDY CONDITIONS: 1 nM [3H]ZM241385, HEK293-hA2A membranes, 25° C., 1 h; Ki from IC50 by Cheng-Prusoff
TEST READOUT: A2A pKi
Form field (numeric): enter value without unit.

Cc1cc(-c2c(-c3ccccc3)nc(N)n3c(=O)n(C[C@H]4C[C@@H](O)CN4C)nc23)cc(C)n1 : 8.8
COc1cccc(-c2nn(Cc3ccccc3)cc2Cn2nc3c(-c4cc(C)nc(C)c4)c(-c4ccccc4)nc(N)n3c2=O)c1 : 8.1

Could you now look at the following compound, please?
A2A pKi lookup needed for COc1cc(-c2c(-c3ccccc3)nc(N)n3c(=O)n(C[C@H]4CCCO4)nc23)cc(C)n1 , thanks.
9.6
